Tested on: Human immunodeficiency virus 1
Measurement Notes: Compound was evaluated for the antiviral activity against compound resistant virus isolate V1081 with amino acid changes in the HIV-1 reverse transcriptase (RT)
Type: functional, organism-based
Endpoint Label: EC50

INPUT: Form entry - test system: Human immunodeficiency virus 1; read-out: EC50; compound: CCCc1cc(=O)oc2c3c(c4c(c12)OC(C)(C)C=C4)O[C@H](C)[C@@H](C)C3=O (stereo in doubt; (+)-2)
OUTPUT: > 100 µM

* * *

Measurement Notes: Therapeutic index against HIV-1 strain RF in CEM-SS cells was expressed as IC50/EC50
Type: organism-based, Human immunodeficiency virus 1
Condition Details: human immunodeficiency virus 1, CEM-SS cells infected with HIV-1 strain RF; read-out: TI
Endpoint Label: selectivity ratio

INPUT: Please report the recorded selectivity ratio for Nc1ccn([C@H]2CC[C@@H](CO)O2)c(=O)n1 .
OUTPUT: > 100
